Values were extracted from patent US20230322761A1.

Measured on: BTK (Homo sapiens)
Construct: endogenous in cells; host or cells: TMD-8 cells
Assay: BTK degradation in TMD-8 cells, HTRF assay after 6 h treatment
Type: cell-based
Cond: IC50 (DC50) of BTK degradation
Measure: DC50 (nM)

Cc1cc(-c2n[nH]c3ncc(-c4ccc(N5CCN(CCc6ccc([C@H]7CCC(=O)NC7=O)cc6)CC5)cn4)cc23)ccc1[C@@H](C)NC(=O)c1noc(C(C)(C)C)n1 = 1.01
Cc1cc(-c2n[nH]c3ncc(-c4ccc(N5CCCN(CC6CCN(c7ccc(N8CCC(=O)NC8=O)cc7)CC6)CC5)cc4)cc23)ccc1[C@@H](C)NC(=O)c1nc(C(C)(C)C)no1 = 9.04

I: CC(C)(C)c1noc(C(=O)NCc2ccc(-c3n[nH]c4ncc(-c5ccc(C6CCN(CC7CCN(c8ccc(N9CCC(=O)NC9=O)cc8)CC7)CC6)cc5)cc34)cc2F)n1
II: Cc1c([C@@H](C)NC(=O)c2noc(C(C)(C)C)n2)ccc(-c2n[nH]c3ncc(-c4ccc(N5CCN(CC6CCN(c7ccc(N8CCC(=O)NC8=O)cc7)CC6)CC5)cc4)cc23)c1F
III: Cc1cc(-c2n[nH]c3ncc(-c4ccc(N5CCN(CC6CCN(c7ccc(N8CCC(=O)NC8=O)c(C)c7)CC6)CC5)nc4)cc23)ccc1CNC(=O)c1nc(C(C)(C)C)no1
IV: Cc1cc(-c2n[nH]c3ncc(-c4ccc(N5CCN(CCc6ccc([C@@H]7CCC(=O)NC7=O)cc6)CC5)cn4)cc23)ccc1[C@@H](C)NC(=O)c1noc(C(C)(C)C)n1
Please produce an ascending ranking of these molecules based on DC50. List the labels in the requested order.
III, II, IV, I
(III: 2.02 nM, II: 3.44 nM, IV: 5.27 nM, I: 10.8 nM)

a: Cc1cc(-c2n[nH]c3ncc(-c4ccc(N5CCN(CC6CCN(c7ccc(N8CCC(=O)NC8=O)cc7)CC6)CC5)c(C)c4)cc23)ccc1[C@@H](C)NC(=O)c1noc(C(C)(C)C)n1
b: Cc1cc(-c2n[nH]c3ncc(-c4ccc(N5CCN(CC6CCN(c7ccc(N8CCC(=O)NC8=O)c(Cl)c7)CC6)CC5)cc4)cc23)ccc1[C@@H](C)NC(=O)c1noc(C(C)(C)C)n1
Which value of DC50 is smaller, the one for a or the one for b ? Please indicate the selected item by its label.
b
(b: 4.87 nM, a: 9.72 nM)

1: Cc1cc(-c2n[nH]c3ncc(-c4ccc(N5CCN(CCn6cc(N7CCC(=O)NC7=O)cn6)CC5)cc4)cc23)ccc1[C@@H](C)NC(=O)c1noc(C(C)(C)C)n1
2: Cc1cc(-c2n[nH]c3nc(-c4ccc(N5CCN(CC6CCN(c7ccc(N8CCC(=O)NC8=O)cc7)CC6)CC5)cc4)ccc23)ccc1[C@@H](C)NC(=O)c1noc(C(C)(C)C)n1
Which value of DC50 is smaller, the one for 1 or the one for 2 ? Please indicate the selected item by its label.
1
(1: 18.8 nM, 2: 62.1 nM)

----------
Measured on: BTK (Homo sapiens)
Construct: endogenous in cells; host or cells: TMD-8 cells
Assay: BTK degradation in TMD-8 cells, HTRF assay after 6 h treatment
Format: cell-based
Cond: IC50 (DC50) of BTK degradation
Measure: DC50 (nM)

Cc1cc(-c2n[nH]c3ncc(-c4ccc(N5CCN(C6CC(c7ccc([C@@H]8CCC(=O)NC8=O)cc7)C6)CC5)cc4)cc23)ccc1[C@@H](C)NC(=O)c1noc(C(C)(C)C)n1 (stereo partly shown) [Example 209] = 13.6

1: Cc1cc(-c2n[nH]c3ncc(-c4ccc(N5CCN(CC(F)(F)c6ccc(C7CCC(=O)NC7=O)cc6)CC5)cc4)cc23)ccc1[C@@H](C)NC(=O)c1nc(C(C)(C)C)no1 (stereo partly shown) [Example 188]
2: CC(C)(C)c1noc(C(=O)NCc2ccc(-c3n[nH]c4ncc(-c5ccc(N6CCN(CCC7CCN(c8ccc(N9CCC(=O)NC9=O)c(F)c8)CC7)CC6)cc5)cc34)cc2F)n1 [Example 17]
3: Cc1cc(-c2n[nH]c3ncc(-c4ccc(N5CCN(CCc6ccc(C7CCC(=O)NC7=O)c(C)n6)CC5)cc4)cc23)ccc1[C@@H](C)NC(=O)c1noc(C(C)(C)C)n1 (stereo partly shown) [Example 155]
Arrange by DC50, high to low. List the labels in the requested order.
1, 2, 3

----------
Measured on: BTK (Homo sapiens)
Construct: endogenous in cells; host or cells: TMD-8 cells
Assay: BTK degradation in TMD-8 cells, HTRF assay after 6 h treatment
Assay type: cell-based
Cond: IC50 (DC50) of BTK degradation
Measure: DC50 (nM)

Use these answered entries as a reference point.
Cc1cc(-c2n[nH]c3ncc(-c4ccc(N5CC6CC5CN6CC5CCN(c6ccc(N7CCC(=O)NC7=O)cc6)CC5)cn4)cc23)ccc1[C@@H](C)NC(=O)c1noc(C(C)(C)C)n1 (some centres unmarked) [Example 127] = 6.79
Cc1cc(-c2n[nH]c3ncc(-c4cccc(N5CCN(CC6CCN(c7ccc(N8CCC(=O)NC8=O)cc7)CC6)CC5)c4)cc23)ccc1[C@@H](C)NC(=O)c1noc(C(C)(C)C)n1 [Example 95] = 71.4
CC(C)(C)c1nc(C(=O)NCc2ccc(-c3n[nH]c4ncc(-c5ccc(C6CCN(CC7CCN(c8ccc(N9CCC(=O)NC9=O)cc8)CC7)CC6)cc5)cc34)cc2F)no1 [Example 15] = 6.38
Cc1cc(-c2n[nH]c3ncc(-c4ccc(N5CCN(CCc6ccc([C@H]7CCC(=O)NC7=O)cc6)CC5)cc4)cc23)ccc1CNC(=O)c1cn(C(C)(C)C)nn1 [Example 150] = 8.88
Cc1cc(-c2n[nH]c3ncc(-c4ccc(C5CCN(C6CC(c7ccc(C8CCC(=O)NC8=O)cc7)C6)CC5)nc4)cc23)ccc1[C@@H](C)NC(=O)c1noc(C(C)(C)C)n1 (some centres unmarked) [Example 197] = 1.08
Cc1c(CNC(=O)c2nc(C(C)(C)C)no2)ccc(-c2n[nH]c3ncc(-c4ccc(C5CCN(CC6CCN(c7ccc(N8CCC(=O)NC8=O)cc7)CC6)CC5)cc4)cc23)c1F [Example 219] = 2.23

I: Cc1cc(-c2n[nH]c3ncc(-c4ccc(N5CCN(CC6CCN(c7ccc(N8CCC(=O)NC8=O)cc7)CC6)CC5)cc4)cc23)ccc1CNC(=O)c1nc(C(C)(C)C)no1 [Example 20]
II: Cc1cc(-c2n[nH]c3ncc(-c4ccc(N5CCN(CC6CCN(c7ccc(N8CCC(=O)NC8=O)c(C)c7)CC6)CC5)cc4)cc23)ccc1[C@@H](C)NC(=O)c1nc(C(C)(C)C)no1 [Example 98]
Response body: label of entry with the larger DC50; valid values I , II . Please indicate the selected item by its label.
I

1: Cc1cc(CCN2CCN(c3ccc(-c4cnc5[nH]nc(-c6ccc([C@@H](C)NC(=O)c7noc(C(C)(C)C)n7)c(C)c6)c5c4)cc3)CC2)ncc1C1CCC(=O)NC1=O (some centres unmarked) [Example 141]
2: COc1cc(CCN2CCN(c3ccc(-c4cnc5[nH]nc(-c6ccc([C@@H](C)NC(=O)c7noc(C(C)(C)C)n7)c(C)c6)c5c4)cc3)CC2)ccc1C1CCC(=O)NC1=O (some centres unmarked) [Example 137]
3: Cc1cc(-c2n[nH]c3ncc(-c4ccc(N5CCN(CCc6ccc(C7CCC(=O)NC7=O)cc6)CC5)cc4)cc23)ccc1CNC(=O)c1noc(C(C)(C)C)n1 (centres unmarked) [Example 107]
4: Cc1cc(-c2n[nH]c3ncc(-c4ccc(N5CCN(CCc6ccc([C@@H]7CCC(=O)NC7=O)cn6)CC5)cc4)cc23)ccc1[C@@H](C)NC(=O)c1noc(C(C)(C)C)n1 [Example 139]
Please produce an ascending ranking of these molecules based on DC50. List the labels in the requested order.
4, 3, 1, 2
(4: 1.03 nM, 3: 1.89 nM, 1: 3.27 nM, 2: 5.23 nM)

----------
Measured on: BTK (Homo sapiens, UniProt Q06187)
Construct: endogenous in cells; host or cells: TMD-8 cells
Sequence (Q06187 whole entry): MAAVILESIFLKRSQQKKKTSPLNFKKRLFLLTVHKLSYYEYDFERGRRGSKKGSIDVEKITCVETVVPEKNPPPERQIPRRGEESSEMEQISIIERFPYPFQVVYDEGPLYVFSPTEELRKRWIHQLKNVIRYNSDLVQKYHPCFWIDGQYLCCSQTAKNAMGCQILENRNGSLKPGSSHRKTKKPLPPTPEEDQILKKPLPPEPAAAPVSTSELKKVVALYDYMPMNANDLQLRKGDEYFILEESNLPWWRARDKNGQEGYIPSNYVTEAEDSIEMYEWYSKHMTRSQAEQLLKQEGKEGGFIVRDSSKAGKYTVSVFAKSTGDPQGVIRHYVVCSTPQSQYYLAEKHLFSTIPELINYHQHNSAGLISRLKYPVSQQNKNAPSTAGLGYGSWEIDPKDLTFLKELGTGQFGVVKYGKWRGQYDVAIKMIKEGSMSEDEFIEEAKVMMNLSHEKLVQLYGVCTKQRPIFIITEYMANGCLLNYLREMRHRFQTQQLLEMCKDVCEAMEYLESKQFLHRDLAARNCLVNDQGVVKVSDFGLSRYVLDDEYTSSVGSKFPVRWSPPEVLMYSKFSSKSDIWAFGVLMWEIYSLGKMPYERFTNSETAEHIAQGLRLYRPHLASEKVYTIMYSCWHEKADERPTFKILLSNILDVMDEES
Assay: BTK degradation in TMD-8 cells, HTRF assay after 6 h treatment
Assay type: cell-based
Cond: IC50 (DC50) of BTK degradation
Measure: DC50 (nM)

Cc1cc(-c2n[nH]c3ncc(-c4ccc(N5CCN(CCc6ccc([C@H]7CCC(=O)NC7=O)c(F)c6)CC5)cc4)cc23)ccc1[C@@H](C)NC(=O)c1noc(C(C)(C)C)n1 = 17
Cc1cc(-c2n[nH]c3ncc(-c4ccc(N5CCN(CC(F)(F)c6ccc(C7CCC(=O)NC7=O)cc6)CC5)cc4)cc23)ccc1[C@@H](C)NC(=O)c1noc(C(C)(C)C)n1 (stereo partly shown) = 8.39
Cc1cc(N2CCC(CN3CCN(c4ccc(-c5cnc6[nH]nc(-c7ccc([C@@H](C)NC(=O)c8noc(C(C)(C)C)n8)c(CO)c7)c6c5)cn4)CC3)CC2)ccc1N1CCC(=O)NC1=O = 6.28
Cc1cc(-c2n[nH]c3ncc(-c4ccc(N5CCN(CC6CCN(c7ccc(N8CCC(=O)NC8=O)cc7)CC6)CC5)cn4)cc23)ccc1CNC(=O)c1noc(C(C)(C)C)n1 = 5.32
Cc1cc(-c2n[nH]c3ncc(-c4ccc(N5CCN(CC6CCN(c7ccc(C8CCC(=O)NC8=O)cc7)C6)CC5)cc4)cc23)ccc1[C@@H](C)NC(=O)c1noc(C(C)(C)C)n1 (stereo partly shown) = 7.34

a: COc1cc(OCCCN2CCN(c3ccc(-c4cnc5[nH]nc(-c6ccc([C@@H](C)NC(=O)c7noc(C(C)(C)C)n7)c(C)c6)c5c4)cc3)CC2)ccc1NC1CCC(=O)NC1=O (stereo partly shown)
b: Cc1cc(-c2n[nH]c3ncc(-c4ccc(N5CCN(C6CC(c7ccc([C@@H]8CCC(=O)NC8=O)cc7)C6)CC5)cc4)cc23)ccc1[C@@H](C)NC(=O)c1noc(C(C)(C)C)n1 (stereo partly shown) [Example 208]
c: Cc1cc(-c2n[nH]c3ncc(-c4ccc(N5CCC(COc6ccc(C7CCC(=O)NC7=O)cc6)CC5)cc4)cc23)ccc1[C@@H](C)NC(=O)c1noc(C(C)(C)C)n1 (stereo partly shown)
d: Cc1cc(-c2n[nH]c3ncc(-c4ccc(N5CCN(CC(C)c6ccc(N7CCC(=O)NC7=O)cc6)CC5)cc4)cc23)ccc1[C@@H](C)NC(=O)c1noc(C(C)(C)C)n1 (stereo partly shown)
Arrange by DC50, high to low. List the labels in the requested order.
c, d, a, b
